# target_or_test_system: T1, human IL-18BP (interleukin-18 binding protein, isoform A) (human, UniProt O95998 31-194)
# T1 construct: cell assays used Sino Biological 10357-H08H; PBMC assay 1 relies on endogenous IL-18BP; UniProt number is printed as 095998; also called hIL-18BP
# T1 sequence: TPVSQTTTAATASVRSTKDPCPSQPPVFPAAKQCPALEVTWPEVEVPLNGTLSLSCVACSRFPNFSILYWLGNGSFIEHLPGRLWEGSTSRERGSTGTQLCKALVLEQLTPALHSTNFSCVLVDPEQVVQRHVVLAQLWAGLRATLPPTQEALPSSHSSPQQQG
# experimental_details: BLI (Octet), mAb on AHC biosensor
result_type: Kd (nM)
# value in nM; strip the unit string

Ask: Bench note: what Kd did SA328a (antibody, human IgG1, V domains shown, humanized; human IgG1 (suffix a), kappa) VH: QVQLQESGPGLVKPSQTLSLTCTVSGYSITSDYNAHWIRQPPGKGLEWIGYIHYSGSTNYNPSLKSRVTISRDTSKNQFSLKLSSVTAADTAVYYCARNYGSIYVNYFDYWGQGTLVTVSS VL: EIVLTQSPATLSLSPGERATLSCSASSSVSYMYWYQQKPGQAPRPLIYRTSNLASGIPARFSGSGSGTDFTLTISSLEPEDFAVYYCQQYHSYVTFGGGTKVEIK show?
Result: 0.133

Next:
Ask: # lookup: Kd of SA310a (antibody, human IgG1, V domains shown, humanized; human IgG1 (suffix a), kappa) VH: QVQLQESGPGLVKPSQTLSLTCTVSGYSITSDYNAHWIRQPPGKGLEWIGYIHYSGSTMYNPSLKSRVTISRDTSKNQFSLKLSSVTAADTAVYYCARNYGSIYVNYFDYWGQGTLVTVSS VL: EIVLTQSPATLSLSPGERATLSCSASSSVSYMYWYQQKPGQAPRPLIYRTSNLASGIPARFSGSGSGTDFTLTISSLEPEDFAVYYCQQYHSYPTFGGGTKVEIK
Result: 0.175

Ask: Returns the measured Kd for the input binder. Input: SA313a (antibody, human IgG1, V domains shown, humanized; human IgG1 (suffix a), kappa) VH: QVQLQESGPGLVKPSQTLSLTCTVSGYSITSDYNAHWIRQPPGKGLEWIGYIHYSGSTMYNPSLKSRVTISRDTSKNQFSLKLSSVTAADTAVYYCARNFGSIYVNYFDYWGQGTLVTVSS VL: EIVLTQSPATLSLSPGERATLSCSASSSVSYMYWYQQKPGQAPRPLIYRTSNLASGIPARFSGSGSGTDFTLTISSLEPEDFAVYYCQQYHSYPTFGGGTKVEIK
Result: 0.272
